Hi there, I'd appreciate the recorded EC50 for every entry that follows.
# subject of test: Streptokinase A (Streptococcus pyogenes serotype M1, UniProt P10520)
# Sequence (P10520 whole entry): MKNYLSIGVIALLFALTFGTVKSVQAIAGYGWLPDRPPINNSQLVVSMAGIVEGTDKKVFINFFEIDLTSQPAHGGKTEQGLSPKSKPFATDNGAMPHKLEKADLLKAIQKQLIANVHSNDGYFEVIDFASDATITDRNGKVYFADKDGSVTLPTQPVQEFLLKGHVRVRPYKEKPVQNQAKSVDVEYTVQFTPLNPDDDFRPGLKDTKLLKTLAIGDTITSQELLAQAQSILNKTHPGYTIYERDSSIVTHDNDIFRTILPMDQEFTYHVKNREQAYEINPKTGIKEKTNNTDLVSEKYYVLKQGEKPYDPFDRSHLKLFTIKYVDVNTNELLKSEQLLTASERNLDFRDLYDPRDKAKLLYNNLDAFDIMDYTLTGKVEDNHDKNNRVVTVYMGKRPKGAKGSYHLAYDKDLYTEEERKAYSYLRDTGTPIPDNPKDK
# assay explanation: viability-normalized secreted streptokinase activity reduction – plasminogen activation absorbance, OD405, dose response (AID 1914);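 further: secreted streptokinase activity via plasminogen activation per viability signal from cell pellet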
# Type: functional, Streptococcus pyogenes M1 GAS
The source made the active and inactive calls. No stated cut-off is given here; in the data, actives have a measured EC50 and inactives only a lower limit.

Worked set:
molecule=O=C(Nc1ccc(-c2csc(Nc3ccccc3)n2)cc1)c1cccc(C(F)(F)F)c1 subject_of_test="Streptokinase A (Streptococcus pyogenes serotype M1, UniProt P10520)" assay_value="> 150 µM (not active)"
molecule=Oc1cc(OCc2ccccc2)ccc1-c1[nH]ncc1-c1ccccc1 subject_of_test="Streptokinase A (Streptococcus pyogenes serotype M1, UniProt P10520)" assay_value="> 150 µM (not active)"
molecule=Clc1cccc(Cl)c1CSc1nnc(/C=C/c2ccccc2)o1 subject_of_test="Streptokinase A (Streptococcus pyogenes serotype M1, UniProt P10520)" assay_value="4.01 µM (active)"
molecule=Cc1cc(-c2c(C)[nH]n(-c3ccc(Cl)cc3)c2=O)n(-c2ccc(Cl)cc2)n1 subject_of_test="Streptokinase A (Streptococcus pyogenes serotype M1, UniProt P10520)" assay_value="> 150 µM (not active)"
molecule=Cc1onc(-c2ccccc2)c1C(=O)NC(=S)NNC(=O)c1ccc(O)cc1O subject_of_test="Streptokinase A (Streptococcus pyogenes serotype M1, UniProt P10520)" assay_value="> 150 µM (not active)"
molecule="COc1ccc(C2/C=C\\CN(C(=O)c3ccccc3)CC(=O)N2Cc2ccc(F)cc2)cc1 (stereo not given)" subject_of_test="Streptokinase A (Streptococcus pyogenes serotype M1, UniProt P10520)" assay_value="> 150 µM (not active)"

I need EC50 for every entry listed below, if you could help.
1. O=C(Nc1ccc(F)c(Cl)c1)Nc1csc2ccccc12
2. COc1ccccc1-c1[nH]nc2c1[C@H](C)CC[C@H]2C(C)C
3. c1ccc(-c2nc(C3CCCCC3)c3ccccc3n2)cc1
4. CC(C)C[C@H](NC(=O)c1[nH]cnc1C(=O)N[C@@H](C)C(=O)OC(C)(C)C)C(=O)OCc1ccccc1

Solution:
1: > 50 µM (not active); 2: > 150 µM (not active); 3: 21.6 µM (active); 4: > 150 µM (not active)

----------
# subject of test: Heat shock factor protein 1 (Mus musculus)
# Sequence (P38532 whole entry): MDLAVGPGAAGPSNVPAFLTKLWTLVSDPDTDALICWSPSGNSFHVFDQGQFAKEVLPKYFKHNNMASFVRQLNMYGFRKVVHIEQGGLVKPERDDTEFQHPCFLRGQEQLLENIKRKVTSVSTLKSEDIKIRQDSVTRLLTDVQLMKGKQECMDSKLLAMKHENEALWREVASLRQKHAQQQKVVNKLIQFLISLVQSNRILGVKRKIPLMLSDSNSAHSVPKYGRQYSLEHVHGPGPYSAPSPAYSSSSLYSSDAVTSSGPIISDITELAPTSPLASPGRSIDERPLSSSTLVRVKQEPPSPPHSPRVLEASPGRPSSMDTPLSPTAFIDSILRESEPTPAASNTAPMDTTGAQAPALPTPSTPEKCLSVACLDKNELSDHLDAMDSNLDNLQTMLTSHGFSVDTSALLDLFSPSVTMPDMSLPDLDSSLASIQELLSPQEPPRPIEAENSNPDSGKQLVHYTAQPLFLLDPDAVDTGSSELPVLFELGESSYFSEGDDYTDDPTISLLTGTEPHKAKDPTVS
# assay explanation: decrease of HSF1-responsive luciferase luminescence – cell-based, NIH3T3, dose retest, confirmation (AID 2382);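 further: NIH3T3 fibroblasts with HSF1-driven luciferase reporter stressed by proteasome inhibitor MG132; luminescence from HSF1-driven luciferase expression after 8 hours of MG132 stress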
# Type: functional
Calls of active or inactive are those of the source. Rule as the data show it: actives have a measured EC50 and inactives only a lower limit.
measured metric: EC50

Worked set:
molecule=CCOC(=O)c1c(C)nc2c(C)cccn12 assay_value="> 195 µM (not active)"
molecule=O=C(CNC(=O)c1ccco1)Nc1ccc2c(c1)OCCO2 assay_value="0.274 µM (active)"
molecule=Cc1ccc(NC(=O)NC2=N/C(=C(/C#N)C(=O)N3CCCC3)c3ccccc32)cc1 assay_value="> 195 µM (not active)"
molecule=COc1ccc(NC(=O)CSc2nnc3ccc(-c4ccncc4)nn23)cc1OC assay_value="> 195 µM (not active)"
molecule="O=C(c1ccccc1)c1ccc(OCC(O)CN2CCCC2)cc1 (stereo unspecified)" assay_value="> 195 µM (not active)"

Let us move to another entry and its EC50.
Exercise: For Oc1ccc(CN2CCCc3ccccc32)c2cccnc12 , write its EC50.
Solution: 29 µM (active)
